Collected IC50 for Xanthine dehydrogenase/oxidase (Bos taurus, UniProt P80457) across several studies; compounds listed below.
Answer with a number only, understood to be in µM.

Lab entry: Xanthine dehydrogenase/oxidase (Bos taurus, UniProt P80457) assay, compound C[C@]12CC[C@H](O)[C@](C)(CO[C@@H]3O[C@H](CO)[C@@H](O)[C@H](O)[C@H]3O)[C@@H]1CC[C@]1(C)[C@@H]2CC=C2[C@@H]3C[C@](C)(C(=O)O)[C@@H](O)C[C@]3(C(=O)O)CC[C@]21C , IC50 = 49.2

Lab entry: Xanthine dehydrogenase/oxidase (Bos taurus, UniProt P80457) assay, compound N#Cc1cc(-n2cnc(C(=O)O)c2)ccc1N1CCCCC1 , IC50 = 0.0556

Lab entry: Xanthine dehydrogenase/oxidase (Bos taurus, UniProt P80457) assay, compound COc1ccc(Nc2ncnc3c2C(c2ccc(O)c(O)c2)c2c(c(=O)oc4ccccc24)O3)cc1 (stereo not given) , IC50 = 18

Lab entry: Xanthine dehydrogenase/oxidase (Bos taurus, UniProt P80457) assay, compound O=C(O)c1ccc(/C=C2\Oc3cc(O)ccc3C2=O)cc1 , IC50 = 0.068

Lab entry: Xanthine dehydrogenase/oxidase (Bos taurus, UniProt P80457) assay, compound COC(=O)C1=COC(OC(=O)NCCCCl)[C@@H]2C(COC(=O)NCCCCl)=CC[C@H]12 (stereo not given in full) , IC50 = 48.8

Lab entry: Xanthine dehydrogenase/oxidase (Bos taurus, UniProt P80457) assay, compound O=[N+]([O-])c1cc(-c2n[nH]c(-c3ccncc3)n2)ccc1Cl , IC50 = 0.0047

Lab entry: Xanthine dehydrogenase/oxidase (Bos taurus, UniProt P80457) assay, compound COc1ccc(Nc2ncnc3c2C(c2ccc(O)c(O)c2)c2c(n[nH]c2C)O3)cc1 (stereo not given) , IC50 = 68

Lab entry: Xanthine dehydrogenase/oxidase (Bos taurus, UniProt P80457) assay, compound CC(=O)OCC1=CC[C@@H]2C(C(=O)Nc3ccccc3-c3ccccc3)=CO[C@@H](O[C@@H]3O[C@H](COC(C)=O)[C@@H](OC(C)=O)[C@H](OC(C)=O)[C@H]3OC(C)=O)[C@H]12 , IC50 = 75.5

Lab entry: Xanthine dehydrogenase/oxidase (Bos taurus, UniProt P80457) assay, compound O=c1cc(-c2ccccc2I)oc2c1ccc1ccccc12 , IC50 = 19.4

Lab entry: Xanthine dehydrogenase/oxidase (Bos taurus, UniProt P80457) assay, compound CCC(C)Oc1ccc(-c2nc(C)c(C(=O)O)n2O)cc1C#N (stereo not given) , IC50 = 0.003

Lab entry: Xanthine dehydrogenase/oxidase (Bos taurus, UniProt P80457) assay, compound N#Cc1cc(-c2cc(C(=O)O)no2)ccc1OCc1ccc(Cl)cc1 , IC50 = 0.63

Lab entry: Xanthine dehydrogenase/oxidase (Bos taurus, UniProt P80457) assay, compound Cc1cc(-c2n[nH]c(-c3ccnc(SCC(C)C)c3)n2)ccn1 , IC50 = 0.046

Lab entry: Xanthine dehydrogenase/oxidase (Bos taurus, UniProt P80457) assay, compound Cc1nc(-c2ccc(OCC(C)C)c(C#N)c2)n(O)c1C(=O)O , IC50 = 0.006

Lab entry: Xanthine dehydrogenase/oxidase (Bos taurus, UniProt P80457) assay, compound CC(C)CCn1cc(COc2ccccc2C=O)nn1 , IC50 = 16
